# key: entry, value: IC50
# target_or_test_system: UniProt Q6GG09
# experiment_summary: MRSA pyruvate kinase (PK) activity, continuous LDH-coupled assay
Where a name gives a salt, the structure may show the parent alone.

>  <molecule>
CN(C)CCNC(=O)COc1cc2[nH]c(-c3cc4ccc(Br)cc4[nH]3)cc2cc1Cl

>  <IC50>
< 100 nM

$$$$
>  <molecule>
O=C(NCCN1CCC(O)CC1)c1c(/C=C/c2ccc(Cl)cc2)[nH]c2cc(Br)ccc12

>  <IC50>
100 to 1000 nM

$$$$
>  <molecule>
O=C(c1ccccc1)c1c(/C=C/c2ccc(Cl)cc2)[nH]c2cc(Br)ccc12

>  <IC50>
< 100 nM

$$$$
>  <molecule>
C[n+]1cccc(CNC(=O)c2c(-c3cc4cc(Cl)ccc4[nH]3)[nH]c3cc(Br)ccc23)c1

>  <IC50>
< 100 nM

$$$$
>  <molecule>
O=C(O)CNC(=O)c1c(/C=C/c2ccc(Cl)cc2)[nH]c2cc(Br)ccc12

>  <IC50>
< 100 nM

$$$$
>  <molecule>
CC(C)(C)NCCNC(=O)c1c(-c2cc3cc(Cl)ccc3[nH]2)[nH]c2cc(Br)ccc12

>  <IC50>
< 100 nM

$$$$
>  <molecule>
O=C(NCCc1ccncc1)c1c(-c2cc3cc(Cl)ccc3[nH]2)[nH]c2cc(Br)ccc12

>  <IC50>
< 100 nM

$$$$
>  <molecule>
CN(C)C(=O)c1c(/C=C/c2ccc(Cl)cc2)[nH]c2cc(Br)ccc12

>  <IC50>
< 100 nM

$$$$
>  <molecule>
CN1CCN(CCOC(=O)c2c(/C=C/c3ccc(Cl)cc3)[nH]c3cc(Br)ccc23)CC1

>  <IC50>
100 to 1000 nM

$$$$
>  <molecule>
FC(F)(F)c1c(CCc2ccc(Cl)cc2)[nH]c2cc(Br)ccc12

>  <IC50>
100 to 1000 nM

$$$$
>  <molecule>
CC(=O)Nc1c(CCc2ccc(Cl)cc2)[nH]c2cc(Br)ccc12

>  <IC50>
> 1000 nM

$$$$
>  <molecule>
Clc1ccc(/C=C/c2[nH]c3cc(Br)ccc3c2-c2nn[nH]n2)cc1

>  <IC50>
< 100 nM

$$$$
>  <molecule>
NC(=NO)c1c(/C=C/c2ccc(Cl)cc2)[nH]c2cc(Br)ccc12

>  <IC50>
< 100 nM

$$$$
>  <molecule>
C[N+](C)(C)CCCNC(=O)c1c(-c2cc3cc(Cl)ccc3[nH]2)[nH]c2cc(Br)ccc12

>  <IC50>
< 100 nM

$$$$
>  <molecule>
CNCCNC(=O)c1c(-c2cc3cc(Cl)ccc3[nH]2)[nH]c2cc(Br)ccc12

>  <IC50>
< 100 nM

$$$$
>  <molecule>
C[C@@H]1CN(CCNC(=O)c2c(-c3cc4cc(Cl)ccc4[nH]3)[nH]c3cc(Br)ccc23)[C@@H](C)CN1C

>  <IC50>
< 100 nM

$$$$
>  <molecule>
Clc1cc2nc(-c3cc4ccc(Br)cc4[nH]3)[nH]c2cc1Cl

>  <IC50>
< 100 nM

$$$$
>  <molecule>
O=C1NCCn2c(cc3cc(Cl)ccc32)-c2[nH]c3cc(Br)ccc3c21

>  <IC50>
< 100 nM

$$$$
>  <molecule>
N[C@@H](CCCCNC(=O)c1c(/C=C/c2ccc(Cl)cc2)[nH]c2cc(Br)ccc12)C(=O)O

>  <IC50>
< 100 nM

$$$$
>  <molecule>
O=C(NCCN1CCNCC1)c1c(/C=C/c2ccc(Cl)cc2)[nH]c2cc(Br)ccc12

>  <IC50>
< 100 nM

$$$$
>  <molecule>
CN1CCN(CCCCNC(=O)c2c(/C=C/c3ccc(Cl)cc3)[nH]c3cc(Br)ccc23)CC1

>  <IC50>
100 to 1000 nM

$$$$
>  <molecule>
CN(Cc1ccccc1)c1c(CCc2ccc(Cl)cc2)[nH]c2cc(Br)ccc12

>  <IC50>
100 to 1000 nM

$$$$
>  <molecule>
C[N+](C)(C)CCCNC(=O)COc1cc2[nH]c(-c3cc4ccc(Br)cc4[nH]3)cc2cc1Cl [Compound 191, Formate]

>  <IC50>
< 100 nM

$$$$
>  <molecule>
O=C(NC(CO)CO)c1c(/C=C/c2ccc(Cl)cc2)[nH]c2cc(Br)ccc12

>  <IC50>
< 100 nM

$$$$
>  <molecule>
CN1CCN(CCNC(=O)c2c(-c3cc4cc(Cl)ccc4[nH]3)[nH]c3cc(Br)ccc23)CC1

>  <IC50>
< 100 nM

$$$$
>  <molecule>
FC(F)(F)c1c(/C=C/c2ccc(Cl)cc2)[nH]c2cc(Br)ccc12

>  <IC50>
< 100 nM

$$$$
>  <molecule>
OCCOc1cc2[nH]c(-c3cc4ccc(Br)cc4[nH]3)cc2cc1Cl

>  <IC50>
< 100 nM

$$$$
>  <molecule>
COCCN1CCCN(CCNC(=O)c2c(-c3cc4cc(Cl)ccc4[nH]3)[nH]c3cc(Br)ccc23)CC1

>  <IC50>
< 100 nM

$$$$
>  <molecule>
COCCN1CCN(CCNC(=O)c2c(-c3cc4cc(Cl)ccc4[nH]3)[nH]c3cc(Br)ccc23)CC1

>  <IC50>
< 100 nM

$$$$
>  <molecule>
O=C(c1c(/C=C/c2ccc(Cl)cc2)[nH]c2cc(Br)ccc12)N1CCOCC1

>  <IC50>
< 100 nM

$$$$
>  <molecule>
CN(C)C(=O)c1c(CCc2ccc(Cl)cc2)[nH]c2ccccc12

>  <IC50>
> 1000 nM

$$$$
>  <molecule>
Clc1ccc(-c2cc3[nH]c4cc(Br)ccc4c3nc2-c2ccccc2)cc1

>  <IC50>
100 to 1000 nM

$$$$

---

# target_or_test_system: UniProtKB Q6GG09
# experiment_summary: MRSA pyruvate kinase (PK) activity, continuous LDH-coupled assay

>  <compound>
CN(C)CCOC(=O)c1c(/C=C/c2ccc(Cl)cc2)[nH]c2cc(Br)ccc12

>  <target_or_test_system>
UniProtKB Q6GG09

>  <IC50>
< 100 nM

$$$$
>  <compound>
NCCOc1cc2[nH]c(-c3cc4ccc(Br)cc4[nH]3)cc2cc1Cl

>  <target_or_test_system>
UniProtKB Q6GG09

>  <IC50>
< 100 nM

$$$$
>  <compound>
NCCNC(=O)c1c(-c2cc3cc(Cl)ccc3[nH]2)[nH]c2cc(Br)ccc12

>  <target_or_test_system>
UniProtKB Q6GG09

>  <IC50>
< 100 nM

$$$$
>  <compound>
CS(=O)(=O)OCCOc1cc2[nH]c(-c3cc4ccc(Br)cc4[nH]3)cc2cc1Cl

>  <target_or_test_system>
UniProtKB Q6GG09

>  <IC50>
< 100 nM

$$$$
>  <compound>
O=C(COc1cc2[nH]c(-c3cc4ccc(Br)cc4[nH]3)cc2cc1Cl)NCCO

>  <target_or_test_system>
UniProtKB Q6GG09

>  <IC50>
< 100 nM

$$$$
>  <compound>
CN1CCC(CCNC(=O)c2c(/C=C/c3ccc(Cl)cc3)[nH]c3cc(Br)ccc23)CC1

>  <target_or_test_system>
UniProtKB Q6GG09

>  <IC50>
100 to 1000 nM

$$$$
>  <compound>
CN(C)C(=O)c1c(CCc2ccc(Cl)cc2)[nH]c2cc(Br)ccc12

>  <target_or_test_system>
UniProtKB Q6GG09

>  <IC50>
> 1000 nM

$$$$
>  <compound>
OC(c1c(/C=C/c2ccc(Cl)cc2)[nH]c2cc(Br)ccc12)C(F)(F)F (centres unmarked)

>  <target_or_test_system>
UniProtKB Q6GG09

>  <IC50>
< 100 nM

$$$$

---

# target_or_test_system: MRSA Pyk (Staphylococcus aureus, UniProt Q6GG09)
# Sequence (Q6GG09 whole entry): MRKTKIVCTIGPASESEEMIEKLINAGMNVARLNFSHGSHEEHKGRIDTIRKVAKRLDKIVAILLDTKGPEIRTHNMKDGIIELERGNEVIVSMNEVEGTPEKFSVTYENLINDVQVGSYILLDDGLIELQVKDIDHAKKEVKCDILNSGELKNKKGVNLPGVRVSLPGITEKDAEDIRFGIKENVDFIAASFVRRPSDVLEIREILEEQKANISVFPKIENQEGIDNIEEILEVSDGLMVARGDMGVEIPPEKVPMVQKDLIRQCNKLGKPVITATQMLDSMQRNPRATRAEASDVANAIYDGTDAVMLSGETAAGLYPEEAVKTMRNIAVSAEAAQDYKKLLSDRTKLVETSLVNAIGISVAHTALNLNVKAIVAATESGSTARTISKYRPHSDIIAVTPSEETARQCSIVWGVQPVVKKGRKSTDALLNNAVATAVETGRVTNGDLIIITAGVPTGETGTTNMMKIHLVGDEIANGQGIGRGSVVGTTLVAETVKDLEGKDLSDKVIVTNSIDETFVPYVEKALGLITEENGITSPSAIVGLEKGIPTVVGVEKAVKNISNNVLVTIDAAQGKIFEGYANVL
# experiment_summary: MRSA pyruvate kinase (PK) activity, continuous LDH-coupled assay
# Experimental: Genomic DNA of MRSA strain Sanger 252 extracted using DNeasy Tissue Kit™ (Qiagen™) was used as a template to generate the His-tagged MRSA PK. […] The sequence and the correct reading frame of all constructs were verified by sequencing. […] MRSA and human constructs in pET-28a(+) were used to express relevant recombinant PK proteins in E. coli BL-21 (DE3). […] Briefly, cells were grown to an absorbance of 0.4-0.5 at 600 nm in 2×YT medium, then induced with 0.1 mM IPTG for 3 h at 20° C. […]
Form field: IC50 (one value per entry).
endpoint: IC50

>  <compound>
CN(C)CC(=O)OCCOc1cc2[nH]c(-c3cc4ccc(Br)cc4[nH]3)cc2cc1Cl

>  <reading>
< 0.1 µM

$$$$
>  <compound>
NC(=O)[C@@H]1CCCN1CCNC(=O)c1c(-c2cc3cc(Cl)ccc3[nH]2)[nH]c2cc(Br)ccc12

>  <reading>
< 0.1 µM

$$$$
>  <compound>
COC(=O)C(=O)c1c(/C=C/c2ccc(Cl)cc2)[nH]c2cc(Br)ccc12

>  <reading>
< 0.1 µM

$$$$
>  <compound>
O=C(NCCc1ccccn1)C(=O)c1c(/C=C/c2ccc(Cl)cc2)[nH]c2cc(Br)ccc12

>  <reading>
0.1 to 1 µM

$$$$
>  <compound>
ON=C(c1c(/C=C/c2ccc(Cl)cc2)[nH]c2cc(Br)ccc12)C(F)(F)F (racemic)

>  <reading>
0.1 to 1 µM

$$$$
>  <compound>
O=C(O)CCNC(=O)c1c(/C=C/c2ccc(Cl)cc2)[nH]c2cc(Br)ccc12

>  <reading>
< 0.1 µM

$$$$
>  <compound>
O=C(Nc1ccc(Cl)cc1)c1[nH]c2cc(Br)ccc2c1C(=O)NCCN1CCNCC1

>  <reading>
< 0.1 µM

$$$$
>  <compound>
CN(C)CCc1c(-c2nc3ccc(Cl)cc3o2)[nH]c2cc(Br)ccc12

>  <reading>
< 0.1 µM

$$$$

This collection of values is drawn from patent US20180312493A1.
